# reported IRF reporter; entries follow
- Test system: RAW-Dual (murine macrophage reporter line)
- Assay name: IRF reporter (Lucia luciferase) activity fold change vs agonist alone; higher = enhanced IRF activity
- Measurement conditions: modulator concentration 10 µM; agonist: MPLA […]

CN(C)CCC(=O)c1ccccc1 :: 0.09
O=C(O)c1nn(Cc2ccc(Cl)cc2Cl)c2ccccc12 :: 1.06
Cc1c(NN=C2C(=O)NC(=O)NC2=O)c(=O)n(-c2ccccc2)n1C :: 0.932

**Q:** // fetch IRF reporter for CCOC(=O)c1ccccc1-c1ccc(C=C2C(=O)NC(=O)N(c3cccc(C)c3)C2=O)o1 ; system: RAW-Dual (murine macrophage reporter line)
**A:** 1.09

**Q:** // fetch IRF reporter for COc1cc([C@@H]2c3cc4c(cc3[C@H](O)[C@H]3COC(=O)[C@H]23)OCO4)cc(OC)c1OC [Prestw-782] ; system: RAW-Dual (murine macrophage reporter line)
**A:** 1.6

**Q:** // fetch IRF reporter for Nc1ccncc1 ; system: RAW-Dual (murine macrophage reporter line)
**A:** 0.976

**Q:** // fetch IRF reporter for COC(=O)c1ccc(N2C(=O)NC(=O)C(=Cc3ccc(OCc4ccccc4F)cc3)C2=O)cc1 ; system: RAW-Dual (murine macrophage reporter line)
**A:** 1.08

**Q:** // fetch IRF reporter for c1ccc2c(c1)Nc1ccccc1S2 ; system: RAW-Dual (murine macrophage reporter line)
**A:** 1.32

**Q:** // fetch IRF reporter for COc1ccc(N2C(=O)C(=Cc3ccc(OCc4ccc(F)cc4)c(OC)c3)C(=O)NC2=S)cc1 ; system: RAW-Dual (murine macrophage reporter line)
**A:** 1.05

**Q:** // fetch IRF reporter for CCC1(O)C(=O)OCc2c1cc1n(c2=O)Cc2cc3ccccc3nc2-1 (centres undefined) ; system: RAW-Dual (murine macrophage reporter line)
**A:** 1.41

**Q:** // fetch IRF reporter for COc1cc(C2c3cc4c(cc3C(O)C3COC(=O)C23)OCO4)cc(OC)c1OC (centres undefined) ; system: RAW-Dual (murine macrophage reporter line)
**A:** 1.51

**Q:** // fetch IRF reporter for O=C1NC(=O)C(C(CC(=O)c2ccccc2)c2ccccc2)C(=O)N1 (centres undefined) ; system: RAW-Dual (murine macrophage reporter line)
**A:** 0.931

**Q:** // fetch IRF reporter for CC[N+]1(C)CCCC(OC(=O)C(O)(c2ccccc2)c2ccccc2)C1 (centres undefined) [Prestw-760] ; system: RAW-Dual (murine macrophage reporter line)
**A:** 0.973

**Q:** // fetch IRF reporter for COc1ccc2c(c1)[nH]c1c(C)nccc12 ; system: RAW-Dual (murine macrophage reporter line)
**A:** 0.594

**Q:** // fetch IRF reporter for O=C(O)COc1cc(Cl)c(Cl)cc1Cl ; system: RAW-Dual (murine macrophage reporter line)
**A:** 1.46

**Q:** // fetch IRF reporter for Cc1noc(C)c1CC(=O)N1CCCSCC1CN1CCCC1 (centres undefined) ; system: RAW-Dual (murine macrophage reporter line)
**A:** 0.972

**Q:** // fetch IRF reporter for Cc1cccc(-n2c(C)nc3ccccc3c2=O)n1 ; system: RAW-Dual (murine macrophage reporter line)
**A:** 0.935

**Q:** // fetch IRF reporter for CC(=O)OC1CN2CCC1CC2.Cl (centres undefined) ; system: RAW-Dual (murine macrophage reporter line)
**A:** 0.862

**Q:** // fetch IRF reporter for Cc1cc(OC(=O)C2CCCCC2)c2c3c(c(=O)oc2c1)CCC3 ; system: RAW-Dual (murine macrophage reporter line)
**A:** 1.13

**Q:** // fetch IRF reporter for Cc1cccc2sc(NC(=O)c3cccn(Cc4ccc(Br)cc4)c3=O)nc12 ; system: RAW-Dual (murine macrophage reporter line)
**A:** 1.12

**Q:** // fetch IRF reporter for ClC(Cl)=C(c1ccc(Cl)cc1)c1ccc(Cl)cc1 ; system: RAW-Dual (murine macrophage reporter line)
**A:** 1.25

**Q:** // fetch IRF reporter for CCC1(c2cccc(O)c2)CCCCN(C)C1.Cl (centres undefined) ; system: RAW-Dual (murine macrophage reporter line)
**A:** 0.948

**Q:** // fetch IRF reporter for O=C1NC(=S)NC(=O)C1=Cc1ccc(OCc2ccc(F)cc2)c(Cl)c1 ; system: RAW-Dual (murine macrophage reporter line)
**A:** 0.824

**Q:** // fetch IRF reporter for Cc1cc(N2CCNCC2)c2ccccc2n1 ; system: RAW-Dual (murine macrophage reporter line)
**A:** 1.15
